Data credit: ChEMBL document CHEMBL1140883

System: 2008
Assay: Cytotoxicity against human 2008 cells after 72 hrs by MTT assay
Type: functional, cell-based
Details: Homo sapiens, 2008, 72 h
pIC50: −log10 of the molar value.
Give pIC50 for every item shown.

Query: // query pIC50 value for entry `COc1cc(NS(C)(=O)=O)ccc1Nc1c2ccc(=O)oc2nc2c(OC)cccc12`
Reply: < 4.00

Query: // query pIC50 value for entry `COc1cccc2c(Cl)c3ccc(=O)oc3nc12`
Reply: 4.22

Query: // query pIC50 value for entry `O=c1ccc2c(Cl)c3ccccc3nc2o1`
Reply: 4.28

Query: // query pIC50 value for entry COc1cc(NS(C)(=O)=O)ccc1Nc1c2ccccc2nc2ccccc12 [AMSACRINE]
Reply: 5.37

Query: // query pIC50 value for entry `COc1cc(NS(C)(=O)=O)ccc1Nc1c2ccccc2nc2oc(=O)ccc12`
Reply: < 4.00

Query: // query pIC50 value for entry `COc1ccc2nc3oc(=O)ccc3c(Nc3ccc(NS(C)(=O)=O)cc3OC)c2c1`
Reply: < 4.00

Query: // query pIC50 value for entry `COc1cccc2c(Nc3ccc(NS(C)(=O)=O)cc3)c3ccc(=O)oc3nc12`
Reply: < 4.00

Query: // query pIC50 value for entry `COc1ccc2nc3oc(=O)ccc3c(Nc3ccc(NS(C)(=O)=O)cc3)c2c1`
Reply: 4.17

Query: // query pIC50 value for entry `COc1ccc2c(Cl)c3ccc(=O)oc3nc2c1`
Reply: < 4.00

Query: // query pIC50 value for entry `CS(=O)(=O)Nc1ccc(Nc2c3ccccc3nc3oc(=O)ccc23)cc1`
Reply: < 4.00

Query: // query pIC50 value for entry `COc1ccc2nc3oc(=O)ccc3c(Cl)c2c1`
Reply: < 4.00

Query: // query pIC50 value for entry `COc1ccc2c(Nc3ccc(NS(C)(=O)=O)cc3)c3ccc(=O)oc3nc2c1`
Reply: < 4.00
